Target: furin, P09958;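 note: purified furin at 1:10 enzyme:substrate in 50 mM HEPES pH 7.5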
Sequence (P09958 whole entry): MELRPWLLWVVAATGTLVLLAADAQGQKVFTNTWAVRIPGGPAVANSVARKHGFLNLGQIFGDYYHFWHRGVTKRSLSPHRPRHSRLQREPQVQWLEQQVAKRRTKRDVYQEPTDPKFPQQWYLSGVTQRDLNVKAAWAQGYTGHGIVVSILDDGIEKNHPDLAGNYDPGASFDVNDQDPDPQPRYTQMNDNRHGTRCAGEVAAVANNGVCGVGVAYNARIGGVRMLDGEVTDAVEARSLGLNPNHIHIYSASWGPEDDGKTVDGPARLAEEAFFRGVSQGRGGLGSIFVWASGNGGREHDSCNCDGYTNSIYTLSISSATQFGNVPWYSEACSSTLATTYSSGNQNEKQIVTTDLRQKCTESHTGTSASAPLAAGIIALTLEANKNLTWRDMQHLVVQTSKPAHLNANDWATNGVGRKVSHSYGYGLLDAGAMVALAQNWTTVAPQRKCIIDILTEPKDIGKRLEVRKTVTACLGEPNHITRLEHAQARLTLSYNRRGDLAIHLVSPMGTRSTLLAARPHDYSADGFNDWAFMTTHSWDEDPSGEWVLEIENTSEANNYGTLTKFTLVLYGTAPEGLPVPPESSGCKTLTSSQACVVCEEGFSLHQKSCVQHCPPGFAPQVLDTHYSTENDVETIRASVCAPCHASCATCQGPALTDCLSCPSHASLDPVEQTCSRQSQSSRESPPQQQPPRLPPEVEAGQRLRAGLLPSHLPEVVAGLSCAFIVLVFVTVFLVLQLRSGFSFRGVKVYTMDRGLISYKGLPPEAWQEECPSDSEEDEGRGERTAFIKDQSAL
Test: furin cleavage Z-score vs untreated control; higher = more cleavage, active = 3.5 or more, inactive = 1 or less, 8 variable residues between constant flanks
Settings: 30 min
The list shows a part of the results. The hit rate among all sequences tested is not known here.
Labels: active, inactive

query_sequence | label_value
CARKRRTATYAGNASASA [FS-2977] | active
CAFHYVTGMTAGNASASA [HC1210] | inactive
CARKHPDATYAGNASASA [HC454] | inactive
CALARRQRRHAGNASASA [FS-266] | active
CAMREVPCHRAGNASASA [HC2426] | inactive
CARSYRIVRTAGNASASA [FS-1934] | active
CARSYRDSGIAGNASASA [FS-2463] | inactive
CANIRTGVRTAGNASASA [HC799] | inactive
CAASSRWRRHAGNASASA [FS-117] | active
CAASSREIRQAGNASASA [FS-1446] | inactive
CARKRRCSLSAGNASASA [FS-1829] | active
CARRRRFERAAGNASASA [FS-1566] | active
CAKHSRRRRSAGNASASA [FS-174] | active
